Study the reported pIC50 values for RAC-alpha serine/threonine-protein kinase (Homo sapiens, UniProt P31749) given below; they originate from different publications.
// pIC50 is dimensionless: -log10 of concentration (M)

Take a look at these entries with their results.
Enquiry: Would you mind telling me what pIC50 value was observed for "CC(C)(C)NCCNc1ccc(-c2nnc(C(F)F)s2)nc1C1CCN(c2ncnc3c2C(C)(C)C(=O)N3)CC1" ?
Return: 8.48

Enquiry: For "COc1cccc2c1-c1nc(-c3ccc([C@]4(N)C[C@@](O)(C5CC5)C4)cc3)c(-c3ccccc3)n1CO2" then?
Return: 8.32

New cases:
Enquiry: Would you mind telling me what pIC50 value was observed for Cn1ncc(Cl)c1-c1csc(C(=O)N[C@H]2CNCC[C@@H]2c2ccc(F)c(F)c2)c1 (racemic) ?
Return: 6.98

Enquiry: For "COc1cc2c(cc1OCCCCl)ncc1c(N)nc(-n3ccnc3)cc12" then?
Return: 6.55

Enquiry: For "COCCOc1cc2ncc3c(N)nc(-n4ccnc4)cc3c2cc1OC" then?
Return: 6.70

Enquiry: For "C[C@H]1CNC[C@@H](NC(=O)c2cc(-c3c(Cl)cnn3C)c(Cl)s2)[C@@H]1c1cccc(F)c1" then?
Return: 7.92
